Here the recorded phosphorylation enrichment is given for each entry.
- targetSystem: EPHB2 (UniProt P29323)
- Sequence (P29323 whole entry, looked up): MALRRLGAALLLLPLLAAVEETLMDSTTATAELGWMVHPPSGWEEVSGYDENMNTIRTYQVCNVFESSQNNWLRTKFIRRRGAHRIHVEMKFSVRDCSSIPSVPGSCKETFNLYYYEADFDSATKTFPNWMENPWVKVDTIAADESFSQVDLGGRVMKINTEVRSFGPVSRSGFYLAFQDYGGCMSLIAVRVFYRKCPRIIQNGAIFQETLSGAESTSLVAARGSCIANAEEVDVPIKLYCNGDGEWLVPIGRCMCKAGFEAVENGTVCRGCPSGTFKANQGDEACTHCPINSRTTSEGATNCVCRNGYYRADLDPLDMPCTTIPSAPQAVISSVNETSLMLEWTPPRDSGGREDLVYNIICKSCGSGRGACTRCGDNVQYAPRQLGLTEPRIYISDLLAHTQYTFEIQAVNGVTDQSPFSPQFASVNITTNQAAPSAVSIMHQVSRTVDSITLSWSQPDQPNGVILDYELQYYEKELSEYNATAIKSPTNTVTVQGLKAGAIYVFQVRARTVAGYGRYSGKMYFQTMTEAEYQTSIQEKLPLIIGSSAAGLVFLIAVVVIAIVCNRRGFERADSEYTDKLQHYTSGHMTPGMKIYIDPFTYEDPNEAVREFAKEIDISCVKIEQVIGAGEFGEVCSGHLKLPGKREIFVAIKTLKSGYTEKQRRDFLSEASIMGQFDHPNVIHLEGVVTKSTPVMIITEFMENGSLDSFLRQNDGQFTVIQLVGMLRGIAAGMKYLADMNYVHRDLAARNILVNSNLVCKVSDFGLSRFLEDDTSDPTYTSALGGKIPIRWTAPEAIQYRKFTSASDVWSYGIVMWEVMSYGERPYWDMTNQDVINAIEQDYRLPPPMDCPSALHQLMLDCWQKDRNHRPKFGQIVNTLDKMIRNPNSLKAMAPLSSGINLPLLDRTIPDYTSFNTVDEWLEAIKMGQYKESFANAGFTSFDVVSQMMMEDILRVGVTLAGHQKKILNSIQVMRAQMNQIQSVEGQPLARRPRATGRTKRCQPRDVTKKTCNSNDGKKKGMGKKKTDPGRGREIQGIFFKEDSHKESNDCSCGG
- procedureSummary: phosphorylation enrichment, bacterial display (enrichment ratio); higher = better substrate or ligand; peptides without Tyr show the background;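 further: 11-residue human phosphosite peptides and single-mutation variants displayed on the E. coli surface, counted by deep sequencing, each peptide's frequency after selection divided by its frequency in the unselected input library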;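 further: frequency after pTyr selection over input frequency; kinase dosed for 20-30% of maximal phosphorylation in three min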
Answer with a bare number; do not write a unit.

Solved cases (2 shown):
INSERT INTO measurements (sequenceentry, attributemeasured, reportedmeasurement) VALUES
  ('KCCCIYEKPRS [PPP1R11_Y64_A69S]', 'phosphorylation enrichment', 0.892),
  ('PQDSAYHSGIQ [FLG_Y3940_S3935P]', 'phosphorylation enrichment', 0.49);

Now for another entry.
Q: Give phosphorylation enrichment; test system EPHB2 (UniProt P29323); sequence RFLRGYRQHAY [HLA-A_Y137_D140H]
A: 0.879

###

- targetSystem: Fes (UniProt P07332)
- Sequence (P07332 whole entry, looked up): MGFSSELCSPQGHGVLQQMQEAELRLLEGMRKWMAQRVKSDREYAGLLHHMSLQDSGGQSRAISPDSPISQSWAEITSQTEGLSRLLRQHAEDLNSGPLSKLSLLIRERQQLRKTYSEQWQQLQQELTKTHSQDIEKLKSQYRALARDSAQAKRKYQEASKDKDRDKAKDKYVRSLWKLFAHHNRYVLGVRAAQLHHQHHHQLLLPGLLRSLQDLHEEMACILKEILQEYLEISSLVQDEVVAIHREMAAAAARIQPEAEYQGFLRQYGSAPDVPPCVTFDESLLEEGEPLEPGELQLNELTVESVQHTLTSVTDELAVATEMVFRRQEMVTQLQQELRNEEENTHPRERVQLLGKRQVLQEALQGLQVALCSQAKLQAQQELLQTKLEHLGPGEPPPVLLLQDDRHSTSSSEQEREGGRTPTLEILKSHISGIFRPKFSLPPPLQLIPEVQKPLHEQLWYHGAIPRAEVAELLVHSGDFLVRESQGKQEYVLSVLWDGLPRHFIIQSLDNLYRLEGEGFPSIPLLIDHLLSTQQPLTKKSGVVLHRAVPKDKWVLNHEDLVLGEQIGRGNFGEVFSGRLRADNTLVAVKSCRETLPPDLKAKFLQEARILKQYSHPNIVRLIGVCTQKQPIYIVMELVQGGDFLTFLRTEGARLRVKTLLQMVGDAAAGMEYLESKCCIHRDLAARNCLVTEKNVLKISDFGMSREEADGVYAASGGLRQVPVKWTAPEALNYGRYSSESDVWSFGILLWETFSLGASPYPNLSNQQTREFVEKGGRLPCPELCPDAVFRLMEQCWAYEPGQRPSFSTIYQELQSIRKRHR
- procedureSummary: phosphorylation enrichment, bacterial display (enrichment ratio); higher = better substrate or ligand; peptides without Tyr show the background
Here the recorded phosphorylation enrichment is given for each entry.
Answer with a bare number; do not write a unit.

Solved cases (2 shown):
INSERT INTO measurements (sequenceentry, targetsystem, reportedmeasurement) VALUES
  ('HVLEEYKPKQG [SAXO2_Y37_P34L]', 'Fes (UniProt P07332)', 0.834),
  ('WDLPEYSFKDP [ITGA3_Y237_S235P_YF]', 'Fes (UniProt P07332)', 1.25);

Q: Specify phosphorylation enrichment for ITVPAYFNDSQ [HSPA9_Y196] and stop.
A: 1.06

Q: Specify phosphorylation enrichment for FPKDVYVDSKD [NDUFAF4_Y69_L65P] and stop.
A: 0.839

Q: Specify phosphorylation enrichment for LRRFIYRPPDR [OTOF_Y1231] and stop.
A: 1.18

Q: Specify phosphorylation enrichment for TLKDVYDDGKY [RPS6KA3_Y483] and stop.
A: 1.12

Q: Specify phosphorylation enrichment for NCLRQYVAGRF [CRB1_Y711_E710Q] and stop.
A: 0.646

Q: Specify phosphorylation enrichment for CTTIHYNYMCH [TP53_Y234_N239H] and stop.
A: 0.855

Q: Specify phosphorylation enrichment for PLDGGYFTLQI [TP53_Y327_E326G] and stop.
A: 1.75

###

- targetSystem: FGFR3 (UniProt P22607)
- Sequence (P22607 whole entry, looked up): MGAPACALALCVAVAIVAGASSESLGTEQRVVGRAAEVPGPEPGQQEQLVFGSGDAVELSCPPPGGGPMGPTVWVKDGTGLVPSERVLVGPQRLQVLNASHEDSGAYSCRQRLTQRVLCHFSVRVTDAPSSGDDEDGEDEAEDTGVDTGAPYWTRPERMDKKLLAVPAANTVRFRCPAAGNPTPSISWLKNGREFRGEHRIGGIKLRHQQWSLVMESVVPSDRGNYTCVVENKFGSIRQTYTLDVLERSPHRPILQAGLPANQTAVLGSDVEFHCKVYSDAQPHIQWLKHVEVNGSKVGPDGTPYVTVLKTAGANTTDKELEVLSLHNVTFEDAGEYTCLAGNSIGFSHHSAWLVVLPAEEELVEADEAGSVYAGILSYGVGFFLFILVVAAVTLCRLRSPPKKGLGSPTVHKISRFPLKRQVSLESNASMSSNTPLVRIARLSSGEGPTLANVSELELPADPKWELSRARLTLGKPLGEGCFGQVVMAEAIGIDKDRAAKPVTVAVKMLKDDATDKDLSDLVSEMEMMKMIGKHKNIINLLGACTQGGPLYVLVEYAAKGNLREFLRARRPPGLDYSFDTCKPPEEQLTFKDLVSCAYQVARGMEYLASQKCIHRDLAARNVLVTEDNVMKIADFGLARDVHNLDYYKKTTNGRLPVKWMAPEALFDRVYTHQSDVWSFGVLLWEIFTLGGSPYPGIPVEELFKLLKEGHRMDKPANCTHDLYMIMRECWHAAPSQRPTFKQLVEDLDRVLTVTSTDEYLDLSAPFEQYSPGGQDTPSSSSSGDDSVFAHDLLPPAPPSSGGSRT
- procedureSummary: phosphorylation enrichment, bacterial display (enrichment ratio); higher = better substrate or ligand; peptides without Tyr show the background
attributeMeasured: phosphorylation enrichment
Answer with a bare number; do not write a unit.

Solved cases (2 shown):
INSERT INTO measurements (sequenceentry, reportedmeasurement) VALUES
  ('EEHIPYTHMNG [INSR_Y1361]', 0.598),
  ('IDQDKYAVHFI [FLNA_Y2388_R2391H]', 0.61);

Q: Specify phosphorylation enrichment for IGLHAYGDQFR [IDH1_Y135_R132L_YF] and stop.
A: 0.594

###

- Tested on: Fer (mouse)
- procedureSummary: phosphorylation enrichment, bacterial display (enrichment ratio); higher = better substrate or ligand; peptides without Tyr show the background
The threshold is inclusive: phosphorylation enrichment of exactly 0.5 counts as T; values below receive F.

INSERT INTO results (sequenceentry, answerlabel) VALUES
  ('KLCHLYQDHMQ [WNT5A_Y86]', 'T');

Q: Dear colleague, could you confirm whether TDHLRYFDSNK [ARAP1_Y359] has phosphorylation enrichment at or above 0.5?
A: F

Q: Dear colleague, could you confirm whether GANFEYIIAEK [ECHS1_Y35] has phosphorylation enrichment at or above 0.5?
A: F

Q: Dear colleague, could you confirm whether SILTVYSKDNF [PANK2_Y400_A398T_YF] has phosphorylation enrichment at or above 0.5?
A: F

Q: Dear colleague, could you confirm whether AVLSLYASGST [ACTG2_Y144_R148S] has phosphorylation enrichment at or above 0.5?
A: T

Q: Dear colleague, could you confirm whether QKLPSYILENN [VPS13B_Y2774] has phosphorylation enrichment at or above 0.5?
A: T

Q: Dear colleague, could you confirm whether NETNKYQISVN [FGB_Y368_A365T] has phosphorylation enrichment at or above 0.5?
A: F
